Some compounds, each annotated with its measured log fold change Tl+ flux.
Test system: R275C/Slo1WT/beta2
test_summary: modulators of BK channel variants, profiling panel, selectivity assay, cell-based, U2OS BacMam, thallium flux, beta subunits (AID 1259406);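 note: initial slope of Thallos dye fluorescence rise after thallium is added; log ratio against the mean of 0.3% DMSO vehicle wells on the same plate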
assay_conditions: at 30 µM
Active and inactive are the calls of the source.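 Rule for the calls: active = thallium flux through the channel raised or lowered by more than 3 SD from vehicle-only wells, actives on both sides; inactive = the rest.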
experimental_readout: log fold change Tl+ flux

O=C(O)c1nnn(-c2ccccc2Oc2ccc(Cl)cc2Cl)c1-c1ccccc1
0.0348 (inactive)
Cn1c(C(F)(F)F)nnc1S(=O)(=O)Cc1ccc(-c2csnn2)cc1
-0.0301 (inactive)
CCC(C)(C)N=C(NC#N)Nc1cccnc1
-0.00574 (inactive)
CCCc1nc(C(C)(C)O)c(C(=O)O)n1Cc1ccc(-c2ccccc2-c2nn[nH]n2)cc1
-0.0157 (inactive)
CC(C)NCC(O)c1ccc(NS(C)(=O)=O)cc1 (stereo unspecified)
0.0082 (inactive)
CN(C)C1C(=O)C(C(N)=O)=C(O)C2(O)C(=O)C3=C(O)c4c(O)ccc(Cl)c4C(O)C3CC12 (stereo unspecified)
-0.0217 (inactive)
